Collected set of IC50 measured with Beta-secretase 1 (Homo sapiens) across studies.
Your answer is read as nM, so omit the unit and give the number.

# annotated cases, reported IC50 shown
NC1=N[C@@]2(CCO1)c1cc(NC(=O)c3ccc(Cl)cn3)ccc1Oc1c2cc(C2=CCCOC2)nc1F    2
CC(C)(C)C#Cc1cnc2c(c1)[C@@]1(COCC(N)=N1)c1cc(-c3cncnc3)c(F)cc1O2    419
NC1=N[C@]2(CCO1)c1cc(-c3cccnc3F)ccc1Oc1c2cc(-c2ccnc(F)c2)nc1F (racemic)    2.2
NC1=N[C@@]2(c3ccc(F)cc3F)CO[C@@H](c3ccc(OC(F)(F)F)cc3)C[C@H]2CS1    21
NC1=NC2(CCO1)c1cc(-c3cccnc3)ccc1Oc1cnc(-c3cccnc3)cc12 (stereo not shown)    13
NC1=N[C@@]2(COC1)c1cc(-c3cccnc3)ccc1Oc1c2cc(C2=CCCOC2)nc1F    0.4

Entry NC1=NC2(c3cc(-c4cccnc4F)ccc3Oc3cnc(C4CCOCC4)cc32)c2ccccc21 (racemic) , IC50 reported as 4
